# TEST DETAILS: Body weight of mice in the in vivo study (tolerability)
# CONDITION PARAMETERS: Day 20; female SWISS mice, 1 μg LNP-formulated saRNA intramuscularly
Weight by entry:
REPORTED METRIC: Weight (g)

[[record]]
compound = "CCCCCCCCCCCCCCOC(=O)CCN(CCC(=O)OCCCCCCCCCCCCCC)CCN1CCN(CCN(CCC(=O)OCCCCCCCCCCCCCC)CCC(=O)OCCCCCCCCCCCCCC)CC1 [Comparator 1 (C1), reference compound]"
reported_metric = "Weight"
unit_descriptor = "g"
numeric_result = 30.11

[[record]]
compound = "CCCCCCC(CCCC)C(=O)OCCCCN(CCCCOC(=O)C(CCCC)CCCCCC)CCN1CCN(CCNCCN)CC1 (centres unmarked) [Compound 10-45]"
reported_metric = "Weight"
unit_descriptor = "g"
numeric_result = 30.21

[[record]]
compound = "CCCCCCC(CCCC)C(=O)OCCCCN(CCCCOC(=O)C(CCCC)CCCCCC)CCN1CCN(CCO)CC1 (centres unmarked) [Compound 10-21]"
reported_metric = "Weight"
unit_descriptor = "g"
numeric_result = 30.83

[[record]]
compound = "CCCCCCC(CCCC)C(=O)OCCCCN(CCCCOC(=O)C(CCCC)CCCCCC)CCN1CCN(CCN)CC1 (centres unmarked) [Compound 10-44]"
reported_metric = "Weight"
unit_descriptor = "g"
numeric_result = 30.04

[[record]]
compound = "CCCCCCCCCCC(O)CN(CCN1CCN(CCN(CC(O)CCCCCCCCCC)CC(O)CCCCCCCCCC)CC1)CCN(CC(O)CCCCCCCCCC)CC(O)CCCCCCCCCC (centres unmarked) [Compound C12-200, reference compound]"
reported_metric = "Weight"
unit_descriptor = "g"
numeric_result = 31.23


###

# System: luciferase saRNA
# TEST DETAILS: In vivo bioluminescent imaging after intramuscular injection of LNP-formulated luciferase saRNA; further: unit not given here
# CONDITION PARAMETERS: Day 20; female SWISS mice, 1 μg luciferase saRNA intramuscularly
// label = satisfied if Bioluminescence expression of LNPs is not less than 90000, otherwise not satisfied

[[record]]
molecule = "CCCCCCC(CCCC)C(=O)OCCCCN(CCCCOC(=O)C(CCCC)CCCCCC)CCN1CCN(CCN)CC1 (centres unmarked)"
classification = "not satisfied"

[[record]]
molecule = "CCCCCCC(CCCC)C(=O)OCCCCN(CCCCOC(=O)C(CCCC)CCCCCC)CCN1CCN(CCNCCN)CC1 (centres unmarked)"
classification = "not satisfied"

[[record]]
molecule = "CCCCCCC(CCCC)C(=O)OCCCCN(CCCCOC(=O)C(CCCC)CCCCCC)CCN1CCN(CCO)CC1 (centres unmarked)"
classification = "satisfied"

[[record]]
molecule = "CCCCCCCCCCCCCCOC(=O)CCN(CCC(=O)OCCCCCCCCCCCCCC)CCN1CCN(CCN(CCC(=O)OCCCCCCCCCCCCCC)CCC(=O)OCCCCCCCCCCCCCC)CC1 [Comparator 1 (C1), reference compound]"
classification = "not satisfied"


###

# TEST DETAILS: LNP characterisation by Zeta Sizer (particle size, polydispersity, charge)
# Assay type: physicochemical
# CONDITION PARAMETERS: LNP with saRNA; lipid:DOPE:Cholesterol:DMG-PEG 35:20:43.5:1.5; N/P approximately 40/1
Listed here: items and their measured Zetapotential (mV).
REPORTED METRIC: Zetapotential (mV)

[[record]]
molecule = "CCCCCCCCCCC(O)CN(CCN1CCN(CCN(CC(O)CCCCCCCCCC)CC(O)CCCCCCCCCC)CC1)CCN(CC(O)CCCCCCCCCC)CC(O)CCCCCCCCCC (centres unmarked) [Compound C12-200, reference compound]"
result = "−5.50 mV"

[[record]]
molecule = "CCCCCCC(CCCC)C(=O)OCCCCN(CCCCOC(=O)C(CCCC)CCCCCC)CCN1CCN(CCO)CC1 (centres unmarked) [Compound 10-21]"
result = "7.05 mV"

[[record]]
molecule = "CCCCCCC(CCCC)C(=O)OCCCCN(CCCCOC(=O)C(CCCC)CCCCCC)CCN1CCN(CCNCCN)CC1 (centres unmarked) [Compound 10-45]"
result = "2.78 mV"

[[record]]
molecule = "CCCCCCCCCCCCCCOC(=O)CCN(CCC(=O)OCCCCCCCCCCCCCC)CCN1CCN(CCN(CCC(=O)OCCCCCCCCCCCCCC)CCC(=O)OCCCCCCCCCCCCCC)CC1 [Comparator 1 (C1), reference compound]"
result = "9.07 mV"

[[record]]
molecule = "CCCCCCC(CCCC)C(=O)OCCCCN(CCCCOC(=O)C(CCCC)CCCCCC)CCN1CCN(CCN)CC1 (centres unmarked) [Compound 10-44]"
result = "1.25 mV"


###

In this section, each of the molecules is paired with its reported Weight.
# TEST DETAILS: Body weight of mice in the in vivo study (tolerability)
# CONDITION PARAMETERS: Day 7; female SWISS mice, 1 μg LNP-formulated saRNA intramuscularly
# Experimental: Female SWISS mice (6 weeks old) were purchased from Janvier Laboratories (Paris, France) and kept in individually ventilated cages with access to food and water ad libitum. Mice were anesthetized with isoflurane (Zoetis, Louvain-La-Neuve, Belgium) (5% for induction and 2% for maintenance) and intramuscularly injected with a total of 1 μg in 100 μL Tris-HCL (50 μL per leg) LNP-formulated luciferase saRNA (for each group n=7). […]
REPORTED METRIC: Weight (g)

[[record]]
molecule = "CCCCCCC(CCCC)C(=O)OCCCCN(CCCCOC(=O)C(CCCC)CCCCCC)CCN1CCN(CCO)CC1 (centres unmarked) [Compound 10-21]"
unit_descriptor = "g"
numeric_result = 28.01

[[record]]
molecule = "CCCCCCCCCCCCCCOC(=O)CCN(CCC(=O)OCCCCCCCCCCCCCC)CCN1CCN(CCN(CCC(=O)OCCCCCCCCCCCCCC)CCC(=O)OCCCCCCCCCCCCCC)CC1 [Comparator 1 (C1), reference compound]"
unit_descriptor = "g"
numeric_result = 27.09

[[record]]
molecule = "CCCCCCC(CCCC)C(=O)OCCCCN(CCCCOC(=O)C(CCCC)CCCCCC)CCN1CCN(CCNCCN)CC1 (centres unmarked) [Compound 10-45]"
unit_descriptor = "g"
numeric_result = 27.27

[[record]]
molecule = "CCCCCCCCCCC(O)CN(CCN1CCN(CCN(CC(O)CCCCCCCCCC)CC(O)CCCCCCCCCC)CC1)CCN(CC(O)CCCCCCCCCC)CC(O)CCCCCCCCCC (centres unmarked) [Compound C12-200, reference compound]"
unit_descriptor = "g"
numeric_result = 28.97

[[record]]
molecule = "CCCCCCC(CCCC)C(=O)OCCCCN(CCCCOC(=O)C(CCCC)CCCCCC)CCN1CCN(CCN)CC1 (centres unmarked) [Compound 10-44]"
unit_descriptor = "g"
numeric_result = 27.94


###

# TEST DETAILS: Body weight of mice in the in vivo study (tolerability)
# CONDITION PARAMETERS: Day 15; female SWISS mice, 1 μg LNP-formulated saRNA intramuscularly
Examples of compounds with documented Weight follow.
REPORTED METRIC: Weight (g)

[[record]]
compound = "CCCCCCCCCCCCCCOC(=O)CCN(CCC(=O)OCCCCCCCCCCCCCC)CCN1CCN(CCN(CCC(=O)OCCCCCCCCCCCCCC)CCC(=O)OCCCCCCCCCCCCCC)CC1 [Comparator 1 (C1), reference compound]"
reported_metric = "Weight"
unit_descriptor = "g"
numeric_result = 29.43

[[record]]
compound = "CCCCCCCCCCC(O)CN(CCN1CCN(CCN(CC(O)CCCCCCCCCC)CC(O)CCCCCCCCCC)CC1)CCN(CC(O)CCCCCCCCCC)CC(O)CCCCCCCCCC (centres unmarked) [Compound C12-200, reference compound]"
reported_metric = "Weight"
unit_descriptor = "g"
numeric_result = 30.16

[[record]]
compound = "CCCCCCC(CCCC)C(=O)OCCCCN(CCCCOC(=O)C(CCCC)CCCCCC)CCN1CCN(CCN)CC1 (centres unmarked) [Compound 10-44]"
reported_metric = "Weight"
unit_descriptor = "g"
numeric_result = 29.31

[[record]]
compound = "CCCCCCC(CCCC)C(=O)OCCCCN(CCCCOC(=O)C(CCCC)CCCCCC)CCN1CCN(CCO)CC1 (centres unmarked) [Compound 10-21]"
reported_metric = "Weight"
unit_descriptor = "g"
numeric_result = 28.63

[[record]]
compound = "CCCCCCC(CCCC)C(=O)OCCCCN(CCCCOC(=O)C(CCCC)CCCCCC)CCN1CCN(CCNCCN)CC1 (centres unmarked) [Compound 10-45]"
reported_metric = "Weight"
unit_descriptor = "g"
numeric_result = 28.19


###

# TEST DETAILS: saRNA encapsulation, Quant-IT RiboGreen assay
# Format: physicochemical
# CONDITION PARAMETERS: LNP with saRNA; RiboGreen with or without 2% Triton X-100
# Encapsulation (%) per record follows
REPORTED METRIC: Encapsulation (%)

[[record]]
molecule = "CCCCCCCCCCCCCCOC(=O)CCN(CCC(=O)OCCCCCCCCCCCCCC)CCN1CCN(CCN(CCC(=O)OCCCCCCCCCCCCCC)CCC(=O)OCCCCCCCCCCCCCC)CC1 [Comparator 1 (C1), reference compound]"
result = "99.03%"

[[record]]
molecule = "CCCCCCCCCCC(O)CN(CCN1CCN(CCN(CC(O)CCCCCCCCCC)CC(O)CCCCCCCCCC)CC1)CCN(CC(O)CCCCCCCCCC)CC(O)CCCCCCCCCC (centres unmarked) [Compound C12-200, reference compound]"
result = "95.32%"

[[record]]
molecule = "CCCCCCC(CCCC)C(=O)OCCCCN(CCCCOC(=O)C(CCCC)CCCCCC)CCN1CCN(CCNCCN)CC1 (centres unmarked) [Compound 10-45]"
result = "100.49%"

[[record]]
molecule = "CCCCCCC(CCCC)C(=O)OCCCCN(CCCCOC(=O)C(CCCC)CCCCCC)CCN1CCN(CCN)CC1 (centres unmarked) [Compound 10-44]"
result = "100.06%"

[[record]]
molecule = "CCCCCCC(CCCC)C(=O)OCCCCN(CCCCOC(=O)C(CCCC)CCCCCC)CCN1CCN(CCO)CC1 (centres unmarked) [Compound 10-21]"
result = "99.41%"


All figures here come from patent US20250025429A1.
